- assayedTarget: JAK2 (recombinant purified GST-tagged catalytic domain) (Homo sapiens (Human), UniProt O60674)
- Sequence (O60674 849-1124): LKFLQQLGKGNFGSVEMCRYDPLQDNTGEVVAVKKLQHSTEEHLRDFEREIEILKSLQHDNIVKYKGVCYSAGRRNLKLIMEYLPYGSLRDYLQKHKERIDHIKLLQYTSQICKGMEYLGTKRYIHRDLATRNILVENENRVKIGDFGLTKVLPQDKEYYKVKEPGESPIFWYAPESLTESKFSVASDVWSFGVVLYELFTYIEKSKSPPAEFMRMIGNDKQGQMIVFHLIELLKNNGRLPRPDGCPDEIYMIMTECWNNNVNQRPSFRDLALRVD
- protocolDetails: Jak Biochemical HTRF Assay (JAK2)
- cond: [ATP] 8.5 μM
pIC50: −log10 of the molar value.
outcomeMeasure: pIC50

Previously resolved entries follow.
compound: Cc1cc(Nc2nn(C3(CC#N)CCN(c4ccc(C#N)cn4)CC3)c3cc[nH]c(=O)c23)ccc1C(=O)N1CCSCC1
reported: 9.77

compound: CC(O)(c1ccc(Nc2nn([C@]3(CC#N)CCCOC3)c3cc[nH]c(=O)c23)cc1)C(F)(F)F (single isomer, unassigned) [Example 5-110]
reported: 9.23

compound: N#CC[C@]1(n2nc(Nc3ccc(Cl)cc3)c3c(=O)[nH]ccc32)CC[C@H](NCC(F)(F)F)CC1
reported: 8.66

compound: CC(C)(C)OC(=O)N1CCC(CC#N)(n2nc(Nc3ccnc(F)c3)c3c(=O)[nH]ccc32)CC1
reported: 8.67

compound: CN(C)S(=O)(=O)c1ccc(Nc2nn(C3(CC#N)CCN(S(=O)(=O)C4CC4)CC3)c3cc[nH]c(=O)c23)cc1
reported: 9.92

A: CC(C)NC(C)(C)c1ccc(Nc2nn(C3(CC#N)CCN(C(=O)OC(C)(C)C)CC3)c3cc[nH]c(=O)c23)cc1
B: CC(C)(C)NC(c1ccc(Nc2nn([C@]3(CC#N)CCCOC3)c3cc[nH]c(=O)c23)cc1)C(F)(F)F (single isomer, unassigned) [Example 5-189]
Lab note: record which item had the higher pIC50, A or B . Pick one; state its label.
B

---

- assayedTarget: JAK1 (recombinant purified GST-tagged catalytic domain) (Homo sapiens (Human), UniProt P23458)
- Sequence (P23458 875-1153): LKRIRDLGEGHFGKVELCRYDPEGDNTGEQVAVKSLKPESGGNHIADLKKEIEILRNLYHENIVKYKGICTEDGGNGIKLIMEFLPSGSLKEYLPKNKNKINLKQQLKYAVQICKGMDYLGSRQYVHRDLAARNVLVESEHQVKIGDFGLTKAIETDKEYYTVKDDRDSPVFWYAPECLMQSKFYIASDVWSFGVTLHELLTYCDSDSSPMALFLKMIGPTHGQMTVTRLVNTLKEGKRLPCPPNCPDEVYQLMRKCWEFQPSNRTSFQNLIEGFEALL
- protocolDetails: Jak Biochemical HTRF Assay (JAK1)
- cond: [ATP] 31.8 μM
outcomeMeasure: IC50 (nM)

Some entries whose results are on file:
compound: CC(C)(C)OC(=O)[C@@H]1CC[C@@](CC#N)(n2nc(Nc3ccc(C4(C(F)(F)F)CCNC4)cc3)c3c(=O)[nH]ccc32)CO1 (single isomer, unassigned) [Example 5-284]
unitsSymbol: nM
IC50: 0.15
//
compound: N#CCC1(n2nc(Nc3ccc(C(F)(F)F)cc3)c3c(=O)[nH]ccc32)CCC(N2CC(F)C2)CC1 (single isomer, unassigned) [Example 18-1]
unitsSymbol: nM
IC50: 0.26
//
compound: COC(=O)N1CCC(CC#N)(n2nc(Nc3ccc4c(c3)CN(CC3CC3)S4(=O)=O)c3c(=O)[nH]ccc32)CC1
unitsSymbol: nM
IC50: 0.06
//
compound: CO[C@H](c1ccc(Nc2nn([C@]3(CC#N)CC[C@@H](C(=O)OC(C)(C)C)OC3)c3cc[nH]c(=O)c23)cc1)C(F)(F)F (single isomer, unassigned)
unitsSymbol: nM
IC50: 0.41
//
compound: CO[C@H](c1ccc(Nc2nn(C3(CC#N)CCN(C(=O)OC(C)(C)C)CC3)c3cc[nH]c(=O)c23)cc1)C(F)(F)F (single isomer, unassigned)
unitsSymbol: nM
IC50: 1.11

P: CN(C(C)(C)C)S(=O)(=O)c1ccc(Nc2nn(C3(CC#N)CCN(C(=O)C(C)(F)F)CC3)c3cc[nH]c(=O)c23)cc1
Q: CN(C)[C@H]1CC[C@@](CC#N)(n2nc(Nc3ccc4c(c3)CN(C(C)(C)C)S4(=O)=O)c3c(=O)[nH]ccc32)CC1
R: COC(=O)N1CCC(CC#N)(n2nc(Nc3ccc4ncccc4c3)c3c(=O)[nH]ccc32)CC1
Exam item: list the entries in increasing order of IC50. Give the labels in the order requested.
R, P, Q

---

- assayedTarget: JAK1 (recombinant purified GST-tagged catalytic domain) (Homo sapiens (Human), UniProt P23458)
- protocolDetails: Jak Biochemical HTRF Assay (JAK1)
- cond: [ATP] 31.8 μM
outcomeMeasure: IC50 (pM)

Some entries whose results are on file:
compound: CN(C)S(=O)(=O)c1ccc(Nc2nn(C3(CC#N)CCN(Cc4ccccc4F)CC3)c3cc[nH]c(=O)c23)cc1
IC50 [pM]: 190
--
compound: Cc1cc(Nc2nn(C3(CC#N)CCN(c4ccc(C#N)cn4)CC3F)c3cc[nH]c(=O)c23)ccc1C(=O)N1CCSCC1 (stereo in doubt)
IC50 [pM]: 100
--
compound: CN(C)S(=O)(=O)c1ccc(Nc2nn(C3(CC#N)CCN(C(=O)CCc4ccccc4)CC3)c3cc[nH]c(=O)c23)cc1
IC50 [pM]: 150

1: CN(C)CC(=O)N1CCC(CC#N)(n2nc(Nc3ccc(S(=O)(=O)N(C)C)cc3)c3c(=O)[nH]ccc32)CC1
2: CC(C)(C)OC(=O)[C@@H]1CC[C@@](CC#N)(n2nc(Nc3ccc(C(O)C(F)(F)F)cc3)c3c(=O)[nH]ccc32)CO1 (single isomer, unassigned) [Example 5-169]
3: N#CC[C@@]1(n2nc(Nc3ccc(C(N)C(F)(F)F)cc3)c3c(=O)[nH]ccc32)CCCOC1 (single isomer, unassigned) [Example 5-187]
Output the entries ranked by IC50 from maximum down to minimum. Rank the items, then write their labels in that order.
1, 3, 2
(1: 650 pM, 3: 190 pM, 2: 100 pM)

---

- assayedTarget: JAK1 (recombinant purified GST-tagged catalytic domain) (Homo sapiens (Human), UniProt P23458)
- protocolDetails: Jak Biochemical HTRF Assay (JAK1)
- cond: [ATP] 31.8 μM
outcomeMeasure: IC50 (nM)

Worked cases, IC50 given:
compound: CC(C)(C)OC(=O)[C@@H]1CC[C@@](CC#N)(n2nc(Nc3ccc(S(C)(=O)=O)cc3)c3c(=O)[nH]ccc32)CO1 (racemic) [Example 5-36]
outcomeMeasure: IC50
unitsSymbol: nM
reported: 0.09

compound: CC(C)(C)OC(=O)[C@@H]1CC[C@@](CC#N)(n2nc(Nc3ccc4c(c3)CN(CC(F)(F)F)S4(=O)=O)c3c(=O)[nH]ccc32)CO1
outcomeMeasure: IC50
unitsSymbol: nM
reported: 0.14

compound: CC(C)(C)OC(=O)[C@@H]1CC[C@@](CC#N)(n2nc(Nc3ccc(Cn4ccnn4)cc3)c3c(=O)[nH]ccc32)CO1
outcomeMeasure: IC50
unitsSymbol: nM
reported: 0.07

compound: CC(C)(C)OC(=O)N1CCC(CC#N)(n2nc(NC3CCC3)c3c(=O)[nH]ccc32)CC1
outcomeMeasure: IC50
unitsSymbol: nM
reported: 67.6

compound: N#CC[C@]1(n2nc(Nc3ccc4c(c3)CN(C3CCN(CC(F)(F)F)CC3)S4(=O)=O)c3c(=O)[nH]ccc32)CCOC[C@H]1F (single isomer, unassigned)
outcomeMeasure: IC50
unitsSymbol: nM
reported: 0.2

compound: CC(C)NC(c1ccc(Nc2nn([C@]3(CC#N)CC[C@@H](C(=O)OC(C)(C)C)OC3)c3cc[nH]c(=O)c23)cc1)C(F)(F)F (single isomer, unassigned) [Example 5-209]
outcomeMeasure: IC50
unitsSymbol: nM
reported: 0.32

A: Cc1cc(Nc2nn([C@@]3(CC#N)CCCC[C@H]3F)c3cc[nH]c(=O)c23)ccc1C(=O)N1CCSCC1
B: CN(C)S(=O)(=O)c1ccc(Nc2nn(C3(CC#N)CCCC3)c3cc[nH]c(=O)c23)cc1
C: Cc1cc(Nc2nn(C3(CC#N)CCN(c4cc(C(F)(F)F)ccn4)CC3)c3cc[nH]c(=O)c23)ccc1C(=O)N1CCSCC1
D: CC(C)(C)N1Cc2cc(Nc3nn(C4(CC#N)CCOCC4)c4cc[nH]c(=O)c34)ccc2S1(=O)=O
E: CC(C)S(=N)(=O)c1ccc(Nc2nn([C@]3(CC#N)CCCOC3)c3cc[nH]c(=O)c23)cc1 (single isomer, unassigned) [Example 5-233]
Order the entries by their reported IC50, beginning at the minimum. Reply with the item labels sorted in the order that was asked for.
D, A, B, E, C
(D: 0.06 nM, A: 0.09 nM, B: 0.23 nM, E: 0.36 nM, C: 2.77 nM)

A: COC(=O)N1CCC(CC#N)(n2nc(Nc3ccc4c(c3)CN(C)S4(=O)=O)c3c(=O)[nH]ccc32)CC1
B: Cc1cc(Nc2nn(C3(CC#N)CCN(C(=O)OC(C)(C)C)CC3)c3cc[nH]c(=O)c23)ccc1C(=O)N1CCOCC1
For the two items A and B , which reports the higher IC50 value? // caller expects the label of the chosen entry
B
(B: 0.18 nM, A: 0.07 nM)

P: CNS(=O)(=O)c1ccc(Nc2nn(C3(CC#N)CCCC3)c3cc[nH]c(=O)c23)cc1
Q: Cc1cc(Nc2nn([C@]3(CC#N)CCOC[C@@H]3F)c3cc[nH]c(=O)c23)ccc1C(=O)N1CCSCC1 (single isomer, unassigned)
Consider P and Q . Which of these has its IC50 at a higher number? Give the label under which the chosen entry appears.
P

I: CN(C)[C@H]1CC[C@](CC#N)(n2nc(Nc3ccc4c(c3)CN(C(C)(C)C)S4(=O)=O)c3c(=O)[nH]ccc32)CC1
II: N#CC[C@@]1(n2nc(Nc3ccc(C#N)cc3)c3c(=O)[nH]ccc32)CCOC1 (single isomer, unassigned)
Lower IC50: I or II ? Answer format: the label of the selected item.
I
(I: 0.23 nM, II: 2.29 nM)

1: CN(C)S(=O)(=O)c1ccc(Nc2nn(C3(CC#N)CCN(Cc4ccc(C#N)cc4)CC3)c3cc[nH]c(=O)c23)cc1
2: CN(C)S(=O)(=O)c1ccc(Nc2nn(C3(CC#N)CCN(C(=O)c4ccccc4)CC3)c3cc[nH]c(=O)c23)cc1
Would you let me know which has the greater IC50 value, 1 or 2 ? Answer format: the label of the selected item.
2
(2: 1.69 nM, 1: 0.2 nM)

A: CS(=O)(=O)c1ccc(Nc2nn(C3(CC#N)CCN(c4ccc(C(F)(F)F)cn4)CC3)c3cc[nH]c(=O)c23)cc1
B: CC(C)(C)OC(=O)N1CCC(CC#N)(n2nc(Nc3ccc(C4(C(F)(F)F)CCN(Cc5ccccc5)C4)cc3)c3c(=O)[nH]ccc32)CC1 (single isomer, unassigned) [Example 5-280]
Hi, I'm comparing A with B and wondering which one has the bigger number for IC50. Any idea? // caller expects the label of the chosen entry
B
(B: 7.33 nM, A: 0.2 nM)

P: CC(C)(C)OC(=O)[C@@H]1CC[C@@](CC#N)(n2nc(Nc3ccc([C@H](N)C(F)(F)F)cc3)c3c(=O)[nH]ccc32)CO1 (single isomer, unassigned)
Q: Cc1cc(Nc2nn([C@]3(CC#N)CC[C@@H](C(=O)OC(C)(C)C)OC3)c3cc[nH]c(=O)c23)ccc1C(=O)N1CCSC(C)C1 (single isomer, unassigned) [Example 5-158]
Higher IC50 between P and Q ? Answer format: the label of the selected item.
Q
(Q: 0.28 nM, P: 0.19 nM)

Reference for the values: patent US9957264B2
